experiment: qHTS assay to identify small molecule antagonists of the retinoid-related orphan receptor gamma (ROR-gamma) signaling pathway - cell viability counter screen (AID 1159520); conditions: Tet-on RORgamma CHO cells viability, ATP luminescence, 16 h; series mostly up to 92.4 µM; also: nearly all actives have a fitted effect of over 50% in size
Inconclusive results are not listed. The source made the active and inactive calls. Calls follow the shape of the dose curve; as a rule, active = well fitted cell-killing curve with a large enough effect in the repeat runs; inconclusive = weak or mixed curves, or effect the other way; inactive = no such curve, though single readings can be large or run the other way.
Allowed answers: 1 (active), -1 (inactive)

-- ask Record request — test call for COCCCN1CCC(NC(=O)c2cc(Cl)c(N)c3c2OCC3)CC1
-- reply -1

-- ask Record request — test call for CC(C)C[C@H]1C(=O)N2CCC[C@H]2[C@]2(O)O[C@](NC(=O)[C@@H]3C=C4c5cccc6[nH]c(Br)c(c56)C[C@H]4N(C)C3)(C(C)C)C(=O)N12
-- reply -1

-- ask Record request — test call for Cc1ccc(N=Nc2c(O)c(C(=O)O)cc3ccccc23)c(S(=O)(=O)O)c1
-- reply -1

---

experiment: qHTS assay to identify small molecule antagonists of the estrogen related receptor signaling pathway with the pleiotropic PPARgamma coactivator (PGC) from Tox21 10K library (AID 1224841); conditions: PGC/ERR reporter cell line, ONE-Glo luciferase, 18 h; series mostly up to 92.4 µM; also: actives are mostly falling curves and most rising ones were filed inactive; nearly all actives have a fitted effect of over 50% in size; also: potency is read from the fitted curve at half-maximal effect
Records with an inconclusive call do not appear. The source made the active and inactive calls. No rule for the calls is given here.
Measured Endpoint: Potency

Before answering, review these 8 worked examples.
The compound listed as CC(C)CC(=O)C1C(=O)c2ccccc2C1=O shows Potency equal to 27.3 µM (active)

The compound listed as CCCCOC(=O)CCCCCCCC(=O)OCCCC shows Potency equal to inactive

The compound listed as C1CCCNCCC1 shows Potency equal to 4.32 µM (active)

The compound listed as C=C1C(=C/C=C2\CCC[C@]3(C)[C@@H]([C@H](C)/C=C/[C@@H](O)C4CC4)CC[C@@H]23)C[C@@H](O)C[C@@H]1O shows Potency equal to 29.8 µM (active)

The compound listed as CCCCCC[C@@H](O)C/C=C\CCCCCCCC(=O)OC shows Potency equal to inactive

The compound listed as O=S(=O)(Oc1ccc(Cl)cc1)c1ccccc1 shows Potency equal to inactive

The compound listed as CCOC(=O)C(O)c1ccccc1 (centres undefined) shows Potency equal to inactive

The compound listed as CN1Cc2cc(C(=O)N3CCC(C4CCNCC4)CC3)ccc2NC(CC(=O)O)C1=O (centres undefined) shows Potency equal to inactive

# next compound below
The compound listed as C[Si](C)(CCCN)O[Si](C)(C)CCCN shows Potency equal to inactive

---

target: Androgen receptor (Homo sapiens) (UniProt P10275); experiment: qHTS assay to identify small molecule antagonists of the androgen receptor (AR) signaling pathway using the MDA cell line in the presence of 0.5 nM R1881 (AID 1259243); conditions: MDA-kb2 MMTV-luciferase, R1881 0.5 nM, 16 h; series mostly up to 42.5 µM; also: nearly all actives have a fitted effect of over 50% in size
Sequence (P10275 whole entry, looked up): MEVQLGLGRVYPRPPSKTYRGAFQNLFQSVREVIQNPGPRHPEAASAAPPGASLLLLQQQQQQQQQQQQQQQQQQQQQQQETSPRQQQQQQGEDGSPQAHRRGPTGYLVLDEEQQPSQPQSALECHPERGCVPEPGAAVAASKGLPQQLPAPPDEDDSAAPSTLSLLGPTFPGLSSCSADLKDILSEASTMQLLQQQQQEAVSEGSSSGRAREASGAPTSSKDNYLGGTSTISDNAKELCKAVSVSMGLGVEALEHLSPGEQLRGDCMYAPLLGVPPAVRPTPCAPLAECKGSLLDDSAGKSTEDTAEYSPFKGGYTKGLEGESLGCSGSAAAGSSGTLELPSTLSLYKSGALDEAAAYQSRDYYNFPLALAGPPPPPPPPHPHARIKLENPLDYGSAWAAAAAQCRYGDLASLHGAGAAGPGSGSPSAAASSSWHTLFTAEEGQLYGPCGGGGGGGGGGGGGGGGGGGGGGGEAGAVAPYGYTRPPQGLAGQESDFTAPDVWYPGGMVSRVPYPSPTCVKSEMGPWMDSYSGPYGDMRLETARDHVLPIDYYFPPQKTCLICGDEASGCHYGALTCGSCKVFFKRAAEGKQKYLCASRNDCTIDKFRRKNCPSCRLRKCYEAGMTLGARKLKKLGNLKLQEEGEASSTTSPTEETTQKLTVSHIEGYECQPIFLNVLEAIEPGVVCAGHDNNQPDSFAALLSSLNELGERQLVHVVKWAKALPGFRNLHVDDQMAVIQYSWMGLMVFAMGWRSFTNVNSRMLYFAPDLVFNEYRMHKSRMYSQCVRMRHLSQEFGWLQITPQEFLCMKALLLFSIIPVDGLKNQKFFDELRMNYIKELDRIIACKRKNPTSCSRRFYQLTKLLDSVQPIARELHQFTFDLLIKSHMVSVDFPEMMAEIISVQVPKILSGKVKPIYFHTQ
Results filed as inconclusive are left out. Calls of active or inactive are those of the source. Calls follow the shape of the dose curve; as a rule, active = well fitted inhibition curve with a large enough effect in the repeat runs; inconclusive = weak or mixed curves; inactive = no such curve, though single readings can be large or run the other way.
Allowed answers: active, inactive

-- ask Record request — test call for C[C@@H](c1ncncc1F)C(O)(Cn1cncn1)c1ccc(F)cc1F (some centres undefined)
-- reply inactive

-- ask Record request — test call for CCCCCCCCCc1ccc(OCCOCCO)cc1
-- reply active

-- ask Record request — test call for c1ccc(-c2ccccn2)nc1
-- reply inactive

-- ask Record request — test call for COc1ccc(S(=O)(=O)N2C(=O)[C@@](c3ccccc3OC)(N3C[C@H](O)C[C@H]3C(=O)N(C)C)c3cc(Cl)ccc32)c(OC)c1
-- reply active

Recorded values, source PubChem BioAssay (Tox21).
